Tested on: LG0567-F671-PDC KRAS tumor spheroid viability
Assay: Anticancer human tumor LG0567-F671-PDC patient-derived lung adenocarcinoma cell line growth inhibition [KRAS2]; active = viability on the fitted dose curve at most 10% of control; inactive = the rest
Conditions: second compound 0.1 µM; first compound 3.16 µM; spheroids with HUVEC and MSC
Labels: y (active), n (inactive)

compound="COC(=O)c1ccc2c(C(=Nc3ccc(N(C)C(=O)CN4CCN(C)CC4)cc3)c3ccccc3)c(O)[nH]c2c1 + CC1OCC2(CCN(c3cnc(Sc4ccnc(N)c4Cl)c(N)n3)CC2)C1N" class_name=n
compound="Cn1nccc1Nc1nccc(-c2cc3c(s2)C(C)(C)N(CCN2CCOCC2)C3=O)n1 + COc1cc2nc(C)nc(NC(C)c3cc(N)cc(C(F)(F)F)c3)c2cc1OC1CCOC1" class_name=n
compound="O=C(c1cc(Cc2n[nH]c(=O)c3ccccc23)ccc1F)N1CCN(C(=O)C2CC2)CC1 + C=CC(=O)N1CCN(c2nc(=O)n(-c3c(C)ccnc3C(C)C)c3nc(-c4c(O)cccc4F)c(F)cc23)C(C)C1" class_name=n
compound="CC(C)NCC(C(=O)N1CCN(c2ncnc3c2C(C)CC3O)CC1)c1ccc(Cl)cc1 (stereo not given) + CNCc1ccccc1-c1csc(C(C)Nc2nc(C)nc3cc(OC)c(OC)cc23)c1" class_name=n
compound="CC(C)NCC(C(=O)N1CCN(c2ncnc3c2C(C)CC3O)CC1)c1ccc(Cl)cc1 (stereo not given) + CC1OCC2(CCN(c3cnc(Sc4ccnc(N)c4Cl)c(N)n3)CC2)C1N" class_name=n
compound="COc1cc2nccc(Oc3ccc(NC(=O)C4(C(=O)Nc5ccc(F)cc5)CC4)cc3)c2cc1OC + COc1cc2nc(C)nc(NC(C)c3cc(N)cc(C(F)(F)F)c3)c2cc1OC1CCOC1" class_name=n
compound="CCNC(=O)CC1N=C(c2ccc(Cl)cc2)c2cc(OC)ccc2-n2c(C)nnc21 (stereo not given) + C=CC(=O)N1CCN(c2nc(=O)n(-c3c(C)ccnc3C(C)C)c3nc(-c4c(O)cccc4F)c(F)cc23)C(C)C1" class_name=n
compound="COc1cc2nccc(Oc3ccc(NC(=O)C4(C(=O)Nc5ccc(F)cc5)CC4)cc3)c2cc1OC + CNCc1ccccc1-c1csc(C(C)Nc2nc(C)nc3cc(OC)c(OC)cc23)c1" class_name=n
compound="COc1cc2nccc(Oc3ccc(NC(=O)C4(C(=O)Nc5ccc(F)cc5)CC4)cc3)c2cc1OC + C=CC(=O)N1CCN(c2nc(OCC3CCCN3C)nc3c2CCN(c2cccc4cccc(C)c24)C3)CC1CC#N" class_name=n
compound="COc1cc(Nc2ncc3c(n2)-c2ccc(Cl)cc2C(c2c(F)cccc2OC)=NC3)ccc1C(=O)O + CNCc1ccccc1-c1csc(C(C)Nc2nc(C)nc3cc(OC)c(OC)cc23)c1" class_name=n
compound="CC1COCCN1c1cc(-c2ccnn2C)c2ccnc(-c3ccn[nH]3)c2n1 (stereo not given) + C=CC(=O)N1CCN(c2nc(=O)n(-c3c(C)ccnc3C(C)C)c3nc(-c4c(O)cccc4F)c(F)cc23)C(C)C1" class_name=n
compound="CC1(C)CCC(CN2CCN(c3ccc(C(=O)NS(=O)(=O)c4ccc(NCC5CCOCC5)c([N+](=O)[O-])c4)c(Oc4cnc5[nH]ccc5c4)c3)CC2)=C(c2ccc(Cl)cc2)C1 + CNCc1ccccc1-c1csc(C(C)Nc2nc(C)nc3cc(OC)c(OC)cc23)c1" class_name=n
compound="CC1COCCN1c1cc(-c2ccnn2C)c2ccnc(-c3ccn[nH]3)c2n1 (stereo not given) + CNCc1ccccc1-c1csc(C(C)Nc2nc(C)nc3cc(OC)c(OC)cc23)c1" class_name=n
compound="COC(=O)c1ccc2c(C(=Nc3ccc(N(C)C(=O)CN4CCN(C)CC4)cc3)c3ccccc3)c(O)[nH]c2c1 + C=CC(=O)N1CCN(c2nc(OCC3CCCN3C)nc3c2CCN(c2cccc4cccc(C)c24)C3)CC1CC#N" class_name=n
compound="O=C(c1cc(Cc2n[nH]c(=O)c3ccccc23)ccc1F)N1CCN(C(=O)C2CC2)CC1 + CNCc1ccccc1-c1csc(C(C)Nc2nc(C)nc3cc(OC)c(OC)cc23)c1" class_name=n
compound="O=C(c1cc(Cc2n[nH]c(=O)c3ccccc23)ccc1F)N1CCN(C(=O)C2CC2)CC1 + CC1OCC2(CCN(c3cnc(Sc4ccnc(N)c4Cl)c(N)n3)CC2)C1N" class_name=n
compound="Cn1nccc1Nc1nccc(-c2cc3c(s2)C(C)(C)N(CCN2CCOCC2)C3=O)n1 + CC1OCC2(CCN(c3cnc(Sc4ccnc(N)c4Cl)c(N)n3)CC2)C1N" class_name=n
compound="CC(=O)OC12COC1CC(O)C1(C)C(=O)C(O)C3=C(C)C(OC(=O)C(O)C(NC(=O)OC(C)(C)C)c4ccccc4)CC(O)(C(OC(=O)c4ccccc4)C21)C3(C)C (stereo not given) + C=CC(=O)N1CCN(c2nc(=O)n(-c3c(C)ccnc3C(C)C)c3nc(-c4c(O)cccc4F)c(F)cc23)C(C)C1" class_name=n
compound="CC1OCC2(CCN(c3cnc(Sc4ccnc(N)c4Cl)c(N)n3)CC2)C1N (stereo not given) + CNCc1ccccc1-c1csc(C(C)Nc2nc(C)nc3cc(OC)c(OC)cc23)c1" class_name=n
compound="CCNC(=O)CC1N=C(c2ccc(Cl)cc2)c2cc(OC)ccc2-n2c(C)nnc21 (stereo not given) + COc1cc2nc(C)nc(NC(C)c3cc(N)cc(C(F)(F)F)c3)c2cc1OC1CCOC1" class_name=y

----------
Tested on: LG0567-F671-PDC KRAS tumor spheroid viability
Experiment: Anticancer human tumor LG0567-F671-PDC cell line growth inhibition [KRAS2];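 note: drug exposure lasted seven days after spheroids formed for three days; 100% = DMSO vehicle control viability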
Conditions: second compound 0.1 µM; first compound 0.1 µM; stronger effect = lower value; spheroids with HUVEC and MSC
READOUT_NAME: viability, T/C (%)

compound="Cn1nccc1Nc1nccc(-c2cc3c(s2)C(C)(C)N(CCN2CCOCC2)C3=O)n1 + CC1OCC2(CCN(c3cnc(Sc4ccnc(N)c4Cl)c(N)n3)CC2)C1N" quantity_unit=% assay_value=52
compound="O=C(c1cc(Cc2n[nH]c(=O)c3ccccc23)ccc1F)N1CCN(C(=O)C2CC2)CC1 + C=CC(=O)N1CCN(c2nc(OCC3CCCN3C)nc3c2CCN(c2cccc4cccc(C)c24)C3)CC1CC#N" quantity_unit=% assay_value=22.5
compound="CC(C)NCC(C(=O)N1CCN(c2ncnc3c2C(C)CC3O)CC1)c1ccc(Cl)cc1 (stereo unspecified) + COc1cc2nc(C)nc(NC(C)c3cc(N)cc(C(F)(F)F)c3)c2cc1OC1CCOC1" quantity_unit=% assay_value=69.1
compound="CC(C)NCC(C(=O)N1CCN(c2ncnc3c2C(C)CC3O)CC1)c1ccc(Cl)cc1 (stereo unspecified) + CC1OCC2(CCN(c3cnc(Sc4ccnc(N)c4Cl)c(N)n3)CC2)C1N" quantity_unit=% assay_value=38.3
compound="COC(=O)c1ccc2c(C(=Nc3ccc(N(C)C(=O)CN4CCN(C)CC4)cc3)c3ccccc3)c(O)[nH]c2c1 + CNCc1ccccc1-c1csc(C(C)Nc2nc(C)nc3cc(OC)c(OC)cc23)c1" quantity_unit=% assay_value=57.4
compound="O=C(c1cc(Cc2n[nH]c(=O)c3ccccc23)ccc1F)N1CCN(C(=O)C2CC2)CC1 + C=CC(=O)N1CCN(c2nc(=O)n(-c3c(C)ccnc3C(C)C)c3nc(-c4c(O)cccc4F)c(F)cc23)C(C)C1" quantity_unit=% assay_value=21.5
compound="CC1(C)CCC(CN2CCN(c3ccc(C(=O)NS(=O)(=O)c4ccc(NCC5CCOCC5)c([N+](=O)[O-])c4)c(Oc4cnc5[nH]ccc5c4)c3)CC2)=C(c2ccc(Cl)cc2)C1 + CC1OCC2(CCN(c3cnc(Sc4ccnc(N)c4Cl)c(N)n3)CC2)C1N" quantity_unit=% assay_value=44.4
compound="CC(C)n1nc(-c2ccc3oc(N)nc3c2)c2c(N)ncnc21 + C=CC(=O)N1CCN(c2nc(OCC3CCCN3C)nc3c2CCN(c2cccc4cccc(C)c24)C3)CC1CC#N" quantity_unit=% assay_value=10.6
compound="COc1cc2nccc(Oc3ccc(NC(=O)C4(C(=O)Nc5ccc(F)cc5)CC4)cc3)c2cc1OC + COc1cc2nc(C)nc(NC(C)c3cc(N)cc(C(F)(F)F)c3)c2cc1OC1CCOC1" quantity_unit=% assay_value=71.5
compound="CCNC(=O)CC1N=C(c2ccc(Cl)cc2)c2cc(OC)ccc2-n2c(C)nnc21 (stereo unspecified) + CC1OCC2(CCN(c3cnc(Sc4ccnc(N)c4Cl)c(N)n3)CC2)C1N" quantity_unit=% assay_value=71.4
compound="CCNC(=O)CC1N=C(c2ccc(Cl)cc2)c2cc(OC)ccc2-n2c(C)nnc21 (stereo unspecified) + C=CC(=O)N1CCN(c2nc(=O)n(-c3c(C)ccnc3C(C)C)c3nc(-c4c(O)cccc4F)c(F)cc23)C(C)C1" quantity_unit=% assay_value=33
compound="CC1OCC2(CCN(c3cnc(Sc4ccnc(N)c4Cl)c(N)n3)CC2)C1N (stereo unspecified) + COc1cc2nc(C)nc(NC(C)c3cc(N)cc(C(F)(F)F)c3)c2cc1OC1CCOC1" quantity_unit=% assay_value=40.3
compound="COC(=O)c1ccc2c(C(=Nc3ccc(N(C)C(=O)CN4CCN(C)CC4)cc3)c3ccccc3)c(O)[nH]c2c1 + COc1cc2nc(C)nc(NC(C)c3cc(N)cc(C(F)(F)F)c3)c2cc1OC1CCOC1" quantity_unit=% assay_value=76.2
compound="COc1cc2nccc(Oc3ccc(NC(=O)C4(C(=O)Nc5ccc(F)cc5)CC4)cc3)c2cc1OC + CNCc1ccccc1-c1csc(C(C)Nc2nc(C)nc3cc(OC)c(OC)cc23)c1" quantity_unit=% assay_value=66.5
compound="COC(=O)c1ccc2c(C(=Nc3ccc(N(C)C(=O)CN4CCN(C)CC4)cc3)c3ccccc3)c(O)[nH]c2c1 + C=CC(=O)N1CCN(c2nc(OCC3CCCN3C)nc3c2CCN(c2cccc4cccc(C)c24)C3)CC1CC#N" quantity_unit=% assay_value=20.4
compound="O=C(c1cc(Cc2n[nH]c(=O)c3ccccc23)ccc1F)N1CCN(C(=O)C2CC2)CC1 + COc1cc2nc(C)nc(NC(C)c3cc(N)cc(C(F)(F)F)c3)c2cc1OC1CCOC1" quantity_unit=% assay_value=108
compound="CC1(C)CCC(CN2CCN(c3ccc(C(=O)NS(=O)(=O)c4ccc(NCC5CCOCC5)c([N+](=O)[O-])c4)c(Oc4cnc5[nH]ccc5c4)c3)CC2)=C(c2ccc(Cl)cc2)C1 + C=CC(=O)N1CCN(c2nc(=O)n(-c3c(C)ccnc3C(C)C)c3nc(-c4c(O)cccc4F)c(F)cc23)C(C)C1" quantity_unit=% assay_value=28.1
compound="CC(C)NCC(C(=O)N1CCN(c2ncnc3c2C(C)CC3O)CC1)c1ccc(Cl)cc1 (stereo unspecified) + C=CC(=O)N1CCN(c2nc(=O)n(-c3c(C)ccnc3C(C)C)c3nc(-c4c(O)cccc4F)c(F)cc23)C(C)C1" quantity_unit=% assay_value=25.9
compound="CCN1CCN(Cc2ccc(Nc3ncc(F)c(-c4cc(F)c5nc(C)n(C(C)C)c5c4)n3)nc2)CC1 + CC1OCC2(CCN(c3cnc(Sc4ccnc(N)c4Cl)c(N)n3)CC2)C1N" quantity_unit=% assay_value=41.2
compound="CC(C)NCC(C(=O)N1CCN(c2ncnc3c2C(C)CC3O)CC1)c1ccc(Cl)cc1 (stereo unspecified) + CNCc1ccccc1-c1csc(C(C)Nc2nc(C)nc3cc(OC)c(OC)cc23)c1" quantity_unit=% assay_value=72.3
compound="CC1COCCN1c1cc(-c2ccnn2C)c2ccnc(-c3ccn[nH]3)c2n1 (stereo unspecified) + CC1OCC2(CCN(c3cnc(Sc4ccnc(N)c4Cl)c(N)n3)CC2)C1N" quantity_unit=% assay_value=32
